Data origin, for the record: the supplement of paper PMC9170038

Tested on: K4 kissing-loop RNA reporter
Protocol Notes: apparent KD of K4 kissing-loop reporter; higher = weaker reporter binding
Condition: Eterna round: R107; input ligand: none
Reported apparent KD of K4 kissing-loop reporter is given for each of the following sequences.

>  <Residues>
AAUUUAUUAACUGAUACCAGACUUUAUUAUUUGUAAAUUACUAGUGAUGUUAGUGUUUCUGUCCCUUGGCAGCAGUAUUUAUUAA [JR_SSTheophyB_Sub024]

>  <Tested Target>
K4 kissing-loop RNA reporter

>  <apparent KD of K4 kissing-loop reporter, nM>
90.3

$$$$
>  <Residues>
GGAGUUACCUGGGAUACCAGUCGGAGACCCAGAGCUCGGAGUGAUGUUCUGGGAUGUUUCGGCCCUUGGCAGCUCUGGGUCUCCC [#2 Exclusion - Theophylline B Attempt #8 (HarryS)]

>  <Tested Target>
K4 kissing-loop RNA reporter

>  <apparent KD of K4 kissing-loop reporter, nM>
723

$$$$
>  <Residues>
AAAAGCAGAAAGACGCAUUAAAGAACCGAAGGAGCGCGGAAUUACGCAGGUAGGUCGCGGGAUAAGCGAGUGAUGUUCGCGAAAG [Arginine A Same State; Euphoria Solution]

>  <Tested Target>
K4 kissing-loop RNA reporter

>  <apparent KD of K4 kissing-loop reporter, nM>
72.1

$$$$
>  <Residues>
AAAGACUGACUGCAAUUAGCAGUCAGUCAACGAGGACCGGUACGGCCGCCACUCGGGUCCUAGAGUGAUGUUCUAAUAAUAUAAA [AK1.2 SS Tryptophan A]

>  <Tested Target>
K4 kissing-loop RNA reporter

>  <apparent KD of K4 kissing-loop reporter, nM>
319

$$$$
>  <Residues>
AAGCAGUCACUCGAACCCAUCGAAGAUGGGCGAGGACCGGUACGGCCGCCACUCGGAGUGAUGUUCCGCAGACUGCAAAAUAAAA

>  <Tested Target>
K4 kissing-loop RNA reporter

>  <apparent KD of K4 kissing-loop reporter, nM>
339

$$$$
>  <Residues>
GAAUGAUAGUAAGGAUAUAGAUAAUCCUUAUAUAUAUCGAGUGAUGUUCGAUGUGGCAAGAUACAUCUAGAAGGUACUGUAAGGU [Same State FMN B GF 16]

>  <Tested Target>
K4 kissing-loop RNA reporter;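 note: bound reporter read as fluorescence of individual clusters on recovered sequencing chips by microscopy, with normalized cluster intensities fitted with a binding model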

>  <apparent KD of K4 kissing-loop reporter, nM>
361

$$$$

---

Reported apparent KD of MS2 coat protein is given for each of the following sequences.
Test system: MS2 coat protein
Protocol Notes: apparent KD of MS2 coat protein; designed switch direction (-1 OFF switch, 1 ON switch): -1; higher = weaker reporter binding
Condition: input ligand: FMN 200 uM
Reported Property: apparent KD of MS2 coat protein (nM)

>  <Residues>
GUGUGACAUGAGGAUCACCCAUGUGAGGAUAUCAUGCUUCGUAGUAAACUACGAAGUGUGAGAAGGCACAUAAC [Omei Ex1 E8] (Eterna round: R97, puzzle: Exclusion 1)

>  <Quantity Unit>
nM

>  <Observed Value>
678

$$$$
>  <Residues>
CCAAGAAUAGGAUAUACACCAUGUCAGCUUAUAUACAACGCACAUGAGGAUCACCCAUGUAGAAGGGUUCUCUC [Exclusion-2-#2] (Eterna round: R97, puzzle: Exclusion 2)

>  <Quantity Unit>
nM

>  <Observed Value>
571

$$$$
>  <Residues>
UUCACAUGGACAUAAGAUCACAUGAGGAUCACCCAUGUGAAUAACAAGCUUUUUGUUCGUCUUAUGUCCAAUAAUAA [Stov1/14-B1] (Eterna round: R97, puzzle: Sensor, turn-off variant 1)

>  <Quantity Unit>
nM

>  <Observed Value>
12.3

$$$$
>  <Residues>
GUUGUGUAAGGAUAUGCCUGGCCGUGAGGCCAGAUUGAGUGGCAGAAGGUACAUGAGGAUCACCCAUGUACGGG [salish99_ex4_4_003] (Eterna round: R97, puzzle: Exclusion 4)

>  <Quantity Unit>
nM

>  <Observed Value>
145

$$$$
>  <Residues>
GCCUCACUUGAGGAUCACCCAAGUCAGGAUAUUCACUGAACUACGUAGCAGUUCGGCCGAAGAAGGGAUUCGGG [Azaraqu] (Eterna round: R97, puzzle: Exclusion 1)

>  <Quantity Unit>
nM

>  <Observed Value>
44.5

$$$$
>  <Residues>
UAAUAUCUGAUUCUUGAGAUACAUGAGGAUCACCCAUGUUCACAGGAUAUUGAUUUUAAGAAAAGCAAGAAGGGUGAAUCAUUU [JR_ExcNG3_Sub041] (Eterna round: R96, puzzle: Exclusion NG 3)

>  <Quantity Unit>
nM

>  <Observed Value>
26.9

$$$$
>  <Residues>
AAGGCGGUAGGAUAUACAUGAGGAUCACCCAUGUACGCGUGGAUCCCUGUGACGUCAAGUAGAAGGGCCAUAAA [Xetesobiar] (Eterna round: R97, puzzle: Exclusion 3)

>  <Quantity Unit>
nM

>  <Observed Value>
27.5

$$$$
>  <Residues>
UGAGCUUGAGGAUAUACAAUGAGCUUGAGAAAUCGAGUUCGACAUGAGGAUCACCCAUGUAGAAGGCGAGUUCG [-37.5, -35.6 kcal, A 28% 1 and 1] (Eterna round: R97, puzzle: Exclusion 2)

>  <Quantity Unit>
nM

>  <Observed Value>
28.1

$$$$
>  <Residues>
ACAUGAGGAUCACCCAUGUCAGGUUGGUCCUCUCCGGCUGUUGAGGAUAUAGUCCGGUAUCCGCGCUAGAAGGUGAGGGCUGGC [Aenatbe mod 15] (Eterna round: R96, puzzle: Exclusion NG 3)

>  <Quantity Unit>
nM

>  <Observed Value>
21.4

$$$$
>  <Residues>
UAACAUGUACAAGGAUAUCAGCACGUUUAGUGCUGAGAAGGUGUAACAUGAGGAUCACCCAUGUAGAUCAUUAAUUAAUUAAUU [ENG1/9-B2] (Eterna round: R96, puzzle: Exclusion NG 1)

>  <Quantity Unit>
nM

>  <Observed Value>
244

$$$$

---

Reported apparent KD of MS2 coat protein is given for each of the following sequences.
Tested on: MS2 coat protein
Protocol Notes: apparent KD of MS2 coat protein; higher = weaker reporter binding
Condition: Eterna round: R107; input ligand: none
Reported Property: apparent KD of MS2 coat protein (nM)

>  <Residues>
AAGACGGUCGGAAGGAGCGGUACAUGAGGAUCACCCAUGUACCUCUGGGCAUCCGUAGUGUGCCAGGUAGGUCGCCGAUUGCGGG [Esorbevege]

>  <Reported Property>
apparent KD of MS2 coat protein

>  <Observed Value>
11.7

$$$$
>  <Residues>
UAAUAAAUAAAUCCAAGGUGAAGGUCAGAUACCAGCCAGAUAACUGGCCCUUGGCAGCUGAAUAAACUUGAGGAUCACCCAGGUA [TheoAS 27 #OpenEnded #MS2Late #AlternativeMS2]

>  <Reported Property>
apparent KD of MS2 coat protein

>  <Observed Value>
63.1

$$$$
>  <Residues>
GUAGGUCUCAUGGGUGGACCUACACUGGAAGGAGCGAGCGAAAGCUCAGGUAGGUCGCCAGAAACAUGAGGAUCACCCAUGUAAU [(A)''-(M)'-(A)'-(Arg1)-(Arg2)-(M1)-(M2)_Design1]

>  <Reported Property>
apparent KD of MS2 coat protein

>  <Observed Value>
360

$$$$
>  <Residues>
CUAUUGAUAGCGGCCGCCACUUACUCAUGAGGUAACAACAUGAGGAUCACCCAUGUUUGAGGAUCAAGGACCGGGCUAUUGAUAG [AstrosSSTryB#13]

>  <Reported Property>
apparent KD of MS2 coat protein

>  <Observed Value>
27.6

$$$$
>  <Residues>
UGUAUGUGAUCUGAUACCAGUCCAACUGGUAAAACCUGAGGAUCACCCGGGUAAAAUUGGGACCCUUGGCAGCAGAUCGCAUACU

>  <Reported Property>
apparent KD of MS2 coat protein

>  <Observed Value>
475

$$$$
>  <Residues>
UUGUUGUUUGGAAGGAGCGUGUAUGAUUAAGAACAUGAGGAUCACCCAUGUUGUAGGAUAGCACAGGUAGGUCGCCGGGUGGUGG [11.W]

>  <Reported Property>
apparent KD of MS2 coat protein

>  <Observed Value>
14.8

$$$$
>  <Residues>
ACAUGAGGAUCACCCAUGUAGUGGCACGAUACCAGCUGAUCCCGUGGCCCUUGGCAGCGUCCGGUGUGGUGCGCCGGGAUGGAGC [ZSZMULLIN]

>  <Reported Property>
apparent KD of MS2 coat protein

>  <Observed Value>
28.4

$$$$
>  <Residues>
AUACAUGAGGAUCACCCAUGUUAUAGUGAAGGAGCGACAUUUAUGUCAGGUAGGUCGCACUGUUGUUUAAUGAUUCUUGGAUCUU [#20 Exclusion - Arginine A]

>  <Reported Property>
apparent KD of MS2 coat protein

>  <Observed Value>
13.3

$$$$
>  <Residues>
UGUAUGUGAUCUGAUACCAGAGUGAAUAACCUGAGGAUCACCCUGGUAAGGCGAAAGCCACUCCCUUGGCAGCAGAUCGCAUACU

>  <Reported Property>
apparent KD of MS2 coat protein

>  <Observed Value>
136

$$$$
>  <Residues>
GCCGGGCCCUCGGCCGCCACUGAGAGAGUCGUGUGAACAUGAGGAUCACCCAUGUAAUAUAUAUACAGGACCGGGAGGGCCCGGC [4.W]

>  <Reported Property>
apparent KD of MS2 coat protein

>  <Observed Value>
13.3

$$$$
>  <Residues>
AUACAUGAGGAUCACCCAUGUUAUAGUGAAGGAGCGACAUUUAGGUCAGGUAGGUCGCACUAUUGAAUUAUUAUUCUCAGUUCUU [JR_ExcArginiA_Sub019]

>  <Reported Property>
apparent KD of MS2 coat protein

>  <Observed Value>
13.2

$$$$
>  <Residues>
AUACAUGAGGAUCACCCAUGUAUAGUUGAAGGAGCGACCAGAGGGUCAGGUAGGUCGCAGCGCAUGAGGUAAGCCCAUGUAUGCU [#1 Exclusion - Arginine A Attempt #16 (Inspired by Pi)]

>  <Reported Property>
apparent KD of MS2 coat protein

>  <Observed Value>
22.8

$$$$
>  <Residues>
CCGGCCGCAUGAAGGAGCGCACAGCGCUCGCACAUGAGGAUCACCCAUGUAAAUGGGUGCGUGCAGGUAGGUCGCAUGCAGGCAA [Lesobete]

>  <Reported Property>
apparent KD of MS2 coat protein

>  <Observed Value>
313

$$$$
>  <Residues>
UGCGUACAUGAGGAUCACCCAUGUACUGAAGGAGCGGGAGGCAUCUCAGGUAGGUCGCAGACAUGAGGAUCACCCAUGUAGUGGU [Exclusion Arginine A GF 18]

>  <Reported Property>
apparent KD of MS2 coat protein

>  <Observed Value>
26.9

$$$$
>  <Residues>
ACGAUAGCACCUGAGGAUCACCCAGGUGAUACCAGCCUGGAAACAGGCCCUUGGCAGCACCUAAAAUAAAGGUAACUAUCGAAUA [TheoAX6 #MicroSwitchBubble #AlternativeMS2]

>  <Reported Property>
apparent KD of MS2 coat protein

>  <Observed Value>
50.6

$$$$
>  <Residues>
UUUUUUAACUGAAGGAGCGUCACAUGAGGAUCACCCAUGUAUUAGAUGAGAAGGAUCUUGUGGCAGGUAGGUCGCAGAGGAAGGG [e-argB-V]

>  <Reported Property>
apparent KD of MS2 coat protein

>  <Observed Value>
389

$$$$
>  <Residues>
UGUAUGGACUGAAGGAGCGGGUUGAUAAUCUGAGGAUCACCCAGGUAAAAGGCGAAAGCCACCCAGGUAGGUCGCAGUCCAUACU

>  <Reported Property>
apparent KD of MS2 coat protein

>  <Observed Value>
34

$$$$
>  <Residues>
AAUAAUAAGGCGGCCGCCACUAAACAUGAGGAUCACCCAUGUCUCGAGCGCUUGCGUUUGGGAAGUAGGACCGGGCCAAUAAUAA [Exclusion - Tryptophan B (Freestyle 5)]

>  <Reported Property>
apparent KD of MS2 coat protein

>  <Observed Value>
14.5

$$$$
>  <Residues>
UUUGAGAUAACAGAUACCAGCGUGUUAUAAAACAUGAGGAUCACCCAUGUAGUGAUCAAGCGCCCUUGGCAGCUGGUGUUUUAGG [7.H]

>  <Reported Property>
apparent KD of MS2 coat protein

>  <Observed Value>
102

$$$$
>  <Residues>
UGUUAUUUCCGAAGGAGCGGGAUACAUGAGGAUCACCCAUGUACAUGAGGAUCAACAUGAACCCAGGUAGGUCGCGGAUUUUGUC [Exclusion Arginine B 3]

>  <Reported Property>
apparent KD of MS2 coat protein

>  <Observed Value>
405

$$$$
>  <Residues>
GCACCAGGUACGGAUACCAGACAUUGCCAAUUGGGUGAACAUGAGGAUCACCCAUGUUAAGUCCCUUGGCAGCCGUACCUGGUGC [ETB NP+V+V2 #6 Same Structure]

>  <Reported Property>
apparent KD of MS2 coat protein

>  <Observed Value>
10.6

$$$$
>  <Residues>
AUACAUGAGGAUCACCCAUGUCUUACGGAAGGAGCGAUCAAGAGAUCAGGUAGGUCGCCGUACAUGAGGAUCACCCAUGUAGGCG [EAA NP+V+V2 #9 DOUBLE]

>  <Reported Property>
apparent KD of MS2 coat protein

>  <Observed Value>
32.3

$$$$
>  <Residues>
GGGUAAGAUCCGGAUACCAGCGAACAUGAGGAUCACCCAUGUGACCUAAGAUAGGCUAAACGCCCUUGGCAGCCGAAAUAGCGUU [Same State Theophylline B GF 5]

>  <Reported Property>
apparent KD of MS2 coat protein

>  <Observed Value>
36.4

$$$$
